Give solubility in G1/S (log2) for every item shown.
- Tested on: HeLa Kyoto;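 also: HeLa Kyoto cells arrested at G1/S by double thymidine block, proteins quantified by TMT10plex mass spectrometry in mild NP-40 versus SDS extracts, three biological replicates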
- PROTOCOL DETAILS: solubility in G1/S (NP-40 vs SDS abundance) (log2 ratio); higher = more soluble
- ASSAY SETUP: cell cycle stage: G1/S

MYTLLSGLYKYMFQKDEYCILILGLDNAGKTTFLEQSKTRFNKNYKGMSLSKITTTVGLNIGTVDVGKARLMFWDLGGQEELQSLWDKYYAECHGVIYVIDSTDEERLAESKQAFEKVVTSEALCGVPVLVLANKQDVETCLSIPDIKTAFSDCTSKIGRRDCLTQACSALTGKGVREGIEWMVKCVVRNVHRPPRQRDIT [ARFRP1] has a reported solubility in G1/S (log2) of 0.0143

MSAYPKSYNPFDDDGEDEGARPAPWRDARDLPDGPDAPADRQQYLRQEVLRRAEATAASTSRSLALMYESEKVGVASSEELARQRGVLERTEKMVDKMDQDLKISQKHINSIKSVFGGLVNYFKSKPVETPPEQNGTLTSQPNNRLKEAISTSKEQEAKYQASHPNLRKLDDTDPVPRGAGSAMSTDAYPKNPHLRAYHQKIDSNLDELSMGLGRLKDIALGMQTEIEEQDDILDRLTTKVDKLDVNIKSTERKVRQL [SNAP29] has a reported solubility in G1/S (log2) of 0.394

MSAALLRRGLELLAASEAPRDPPGQAKPRGAPVKRPRKTKAIQAQKLRNSAKGKVPKSALDEYRKRECRDHLRVNLKFLTRTRSTVAESVSQQILRQNRGRKACDRPVAKTKKKKAEGTVFTEEDFQKFQQEYFGS [RPS19BP1] has a reported solubility in G1/S (log2) of -0.897

MEEECRVLSIQSHVIRGYVGNRAATFPLQVLGFEIDAVNSVQFSNHTGYAHWKGQVLNSDELQELYEGLRLNNMNKYDYVLTGYTRDKSFLAMVVDIVQELKQQNPRLVYVCDPVLGDKWDGEGSMYVPEDLLPVYKEKVVPLADIITPNQFEAELLSGRKIHSQEEALRVMDMLHSMGPDTVVITSSDLPSPQGSNYLIVLGSQRRRNPAGSVVMERIRMDIRKVDAVFVGTGDLFAAMLLAWTHKHPNNLKVACEKTVSTLHHVLQRTIQCAKAQAGEGVRPSPMQLELRMVQSKRDIEDPEIVVQATVL [PDXK] has a reported solubility in G1/S (log2) of 0.315

MTLESIMACCLSEEAKEARRINDEIERQLRRDKRDARRELKLLLLGTGESGKSTFIKQMRIIHGSGYSDEDKRGFTKLVYQNIFTAMQAMIRAMDTLKIPYKYEHNKAHAQLVREVDVEKVSAFENPYVDAIKSLWNDPGIQECYDRRREYQLSDSTKYYLNDLDRVADPAYLPTQQDVLRVRVPTTGIIEYPFDLQSVIFRMVDVGGQRSERRKWIHCFENVTSIMFLVALSEYDQVLVESDNENRMEESKALFRTIITYPWFQNSSVILFLNKKDLLEEKIMYSHLVDYFPEYDGPQRDAQAAREFILKMFVDLNPDSDKIIYSHFTCATDTENIRFVFAAVKDTILQLNLKEYNLV [GNAQ] has a reported solubility in G1/S (log2) of -0.282

MTEQAISFAKDFLAGGIAAAISKTAVAPIERVKLLLQVQHASKQIAADKQYKGIVDCIVRIPKEQGVLSFWRGNLANVIRYFPTQALNFAFKDKYKQIFLGGVDKHTQFWRYFAGNLASGGAAGATSLCFVYPLDFARTRLAADVGKSGTEREFRGLGDCLVKITKSDGIRGLYQGFSVSVQGIIIYRAAYFGVYDTAKGMLPDPKNTHIVVSWMIAQTVTAVAGVVSYPFDTVRRRMMMQSGRKGADIMYTGTVDCWRKIFRDEGGKAFFKGAWSNVLRGMGGAFVLVLYDELKKVI [SLC25A6] has a reported solubility in G1/S (log2) of -0.157
